test system: MS2 coat protein; assay: apparent KD of MS2 coat protein; designed switch direction (-1 OFF switch, 1 ON switch): -1; higher = weaker reporter binding; settings: input ligand: none
// reported apparent KD of MS2 coat protein for each item listed

| Residue codes | Uom | apparent KD of MS2 coat protein |
| --- | --- | --- |
| AUAAUGUCAGGAUAUCAGUCGUACAGCUGCGGCUGUACGACUGAGAAGGGACAUGAGGAUCACCCAUGUGGUCA [E4/6-A3] (Eterna round: R97, puzzle: Exclusion 4) | µM | 0.236 |
| GUAACAUGCUGGUGAUCAUACAUGAGGAUCACCCAUGUAACAAGCUUUUUGUUCGUCUUAAUUUAAUUGAUUACUAG [Stov1/8-B2] (Eterna round: R97, puzzle: Sensor, turn-off variant 1) | µM | 0.196 |
| GGUGAAGCAGGAUAUGUAUCGAUAUACAUGAGGAUCACCCAUGUCAUGUUUGAAUCGCAUAUAGAAGGGCUUCACC [Exclusion 5 (FMN-MS2 slide)] (Eterna round: R97, puzzle: Exclusion 5) | µM | 0.0208 |
| ACAUGAGGAUCACCCAUGUUUGGCUGGUUUUCUCCGGCUGUCGAGGAUAUAGUACGGUAUCCGCGCUAGAAGGUGAGGGCCGGC [Aenatbe mod 1] (Eterna round: R96, puzzle: Exclusion NG 3) | µM | 0.0158 |
| GCAAGACGAGGAUAUUGAGAAGGGAACAUGAGGAUCACCCAUGUGGUGGUUUCGACCGGUCGAGAAGGCGUAGAAC [EX5 B.6] (Eterna round: R97, puzzle: Exclusion 5) | µM | 0.957 |
| CCUCGUAGGGAGGAUAUCCUUUAAAUUUAAGGAGGAGAAGGCUCAACAUGAGGAUCACCCAUGUAAAAUUUAAA [-17, -14.8 kcal, A 36%] (Eterna round: R97, puzzle: Exclusion 6) | µM | 0.0787 |
| GUGUGCACGCUGCGAUCCUACAUGAGGAUCACCCAUGUGGUCUGGUGGCGUGGGUCACCGGACUUGGCUCGUCUUGA [salish99_S_TOV1_R5_069] (Eterna round: R97, puzzle: Sensor, turn-off variant 1) | µM | 0.118 |
| CUCCGGCAUGUAGGAUAUGGAUCCGAUUAGGAUCCAGAAGGACAUGAGGAUCACCCAUGUACAUGUAAACAGUCAUCACCGGAC [salish99_ExNG1_r04_202] (Eterna round: R96, puzzle: Exclusion NG 1) | µM | 0.0442 |
| UAUUAGCAAGCGAGAUCCCACAUGAGGAUCACCCAUGUGCUCGUCUUAUAAAAGACUGUGACAAAAGUCACGGUCAC [Sensor 3, v1 - 91 v5] (Eterna round: R97, puzzle: Sensor, turn-off variant 1) | µM | 0.0151 |
| CAACAACGAGGAUAUACAUGAGGAUCACCCAUGUAAGAAAAGACAUAAACCGCCUGGUGUAGAAGGCGUAAAAC [Xeonesar] (Eterna round: R97, puzzle: Exclusion 3) | µM | 0.0382 |
| UAUUUAUAUGAAGGAUAUACUUAACAUGAGGAUCACCCAUGUGGUGUUGUGAGUGAGUGAGUUUAGUAGAAGGUCAAUGAUUUU [JMF's solution 74] (Eterna round: R96, puzzle: Exclusion NG 2) | µM | 0.311 |
| GACAAAGGAGGAUAUACAAUGUCCUGGUCUAACCCGAUGGCACAUGAGGAUCACCCAUGUAGAAGGCCUUUGCG [Eternabot (L1) Solution 4] (Eterna round: R97, puzzle: Exclusion 2) | µM | 0.0176 |
| CAUCAGAUAGGAUAUACAGGCCCGUCUUUAUAUUGAUCCCGACAUGAGGAUCACCCAUGUAGAAGGAUCAGAUG [Mod 27 - Jieux - Exclusion 2] (Eterna round: R97, puzzle: Exclusion 2) | µM | 0.0161 |
| UAUCAACAUGAGGAUCACCCAUGUGAGGAUAUCAAAACCAGAGCGGAUCUCUGGCCCAUGAGAAGGUACAUGGU [ElNandoxlusion 6 - Jieux - Exclusion 1] (Eterna round: R97, puzzle: Exclusion 1) | µM | 0.0223 |
| GGCAGACAUGAGGAUCACCCAUGUCAGGAUAUGCGGCGAAGUACAGUUAGUGCAUUUGGUAGAAGGGACAAGGA [Eternabot (L1) Solution 100] (Eterna round: R97, puzzle: Exclusion 1) | µM | 0.0325 |
| GAAUGAGAGCAGGAUAUCUUAAAAAUGUAUAAAAGAGAAGGGCUCACAUGAGGAUCACCCAUGUGGUCCUAGAU [jl-ex6-4.69 jandersonlee mod] (Eterna round: R97, puzzle: Exclusion 6) | µM | 0.0405 |
| UCGCUCCGUGUAGGAUAUCGCUGUAUGAUGCGGCGAGAAGGACAUGAGGAUCACCCAUGUAUGUUAUUAUCACGCGUGGCGCAA [Design 64] (Eterna round: R96, puzzle: Exclusion NG 1) | µM | 0.0175 |
| GGGCUUAAAGGAUAUGCAAGGAGCCACAUGAGGAUCACCCAUGUACAACCUCAGUCCCUGGUAGAAGGUUACGCAA [whoooo] (Eterna round: R97, puzzle: Exclusion 5) | µM | 0.0306 |
